Each entry below lists one item and its recorded pIC50 value.
target: HCV genotype 1b NS3/4A protease (Hepatitis C virus genotype 1b, UniProt P26663); assay: fluorescence-based enzymatic assay, genotype 1b NS3/4A
Sequence (P26663 1027-1657): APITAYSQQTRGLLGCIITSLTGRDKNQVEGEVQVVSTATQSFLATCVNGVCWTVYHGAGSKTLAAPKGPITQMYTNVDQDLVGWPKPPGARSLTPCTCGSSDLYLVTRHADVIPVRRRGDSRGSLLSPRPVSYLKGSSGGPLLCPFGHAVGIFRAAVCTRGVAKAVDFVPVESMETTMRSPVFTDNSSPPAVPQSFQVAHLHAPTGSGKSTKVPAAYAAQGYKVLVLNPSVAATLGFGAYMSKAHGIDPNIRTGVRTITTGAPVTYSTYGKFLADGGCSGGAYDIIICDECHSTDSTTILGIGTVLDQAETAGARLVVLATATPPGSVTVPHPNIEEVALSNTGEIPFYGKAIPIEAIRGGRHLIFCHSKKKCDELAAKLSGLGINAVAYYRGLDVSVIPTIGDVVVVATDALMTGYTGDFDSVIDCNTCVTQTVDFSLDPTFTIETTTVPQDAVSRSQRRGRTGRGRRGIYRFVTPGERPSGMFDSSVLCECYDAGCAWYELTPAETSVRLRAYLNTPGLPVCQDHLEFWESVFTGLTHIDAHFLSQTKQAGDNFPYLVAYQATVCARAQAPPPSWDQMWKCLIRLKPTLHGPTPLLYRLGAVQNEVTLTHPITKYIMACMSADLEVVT
Sequence (P26663 1658-1711): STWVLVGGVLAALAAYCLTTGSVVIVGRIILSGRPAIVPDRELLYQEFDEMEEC
pIC50: −log10 of the molar value.
reported property: pIC50

Cc1ccc(S(=O)(=O)Nc2ccccc2C(=O)Nc2nc3ccc4sc(C)nc4c3s2)cc1    5.30 to 5.70
Cc1ccc(S(=O)(=O)Nc2ccccc2C(=O)Nc2nc3c(Br)cccc3s2)cc1    4.00 to 5.00
Cc1ccc(S(=O)(=O)Nc2ccccc2C(=O)Nc2nc3c(cc4c5c(cccc53)CC4)s2)cc1    5.30 to 5.70
Cc1ccc(S(=O)(=O)Nc2ccccc2C(=O)Nc2nc(-c3cc(Cl)ccc3Cl)cs2)cc1    > 5.70
